The measured values listed here are drawn from ChEMBL document CHEMBL1137232.

Target: Sodium-dependent dopamine transporter (Rattus norvegicus, UniProt P23977)
Sequence (P23977 whole entry): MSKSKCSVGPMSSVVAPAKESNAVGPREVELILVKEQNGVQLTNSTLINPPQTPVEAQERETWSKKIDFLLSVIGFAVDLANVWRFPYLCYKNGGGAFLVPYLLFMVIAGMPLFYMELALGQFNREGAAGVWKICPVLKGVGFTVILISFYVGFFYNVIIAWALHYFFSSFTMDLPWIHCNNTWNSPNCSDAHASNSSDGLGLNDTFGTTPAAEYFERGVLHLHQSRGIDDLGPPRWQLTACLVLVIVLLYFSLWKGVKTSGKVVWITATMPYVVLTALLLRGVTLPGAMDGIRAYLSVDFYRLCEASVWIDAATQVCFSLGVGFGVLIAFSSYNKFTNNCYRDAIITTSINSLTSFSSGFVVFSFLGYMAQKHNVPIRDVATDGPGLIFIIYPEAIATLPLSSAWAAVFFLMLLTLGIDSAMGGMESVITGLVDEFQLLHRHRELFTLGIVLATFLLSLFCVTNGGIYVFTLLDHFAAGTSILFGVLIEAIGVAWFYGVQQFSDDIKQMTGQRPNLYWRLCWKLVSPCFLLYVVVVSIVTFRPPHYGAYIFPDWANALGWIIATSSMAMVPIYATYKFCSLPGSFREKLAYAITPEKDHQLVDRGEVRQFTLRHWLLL
Test: Inhibition of high affinity uptake by the dopamine transporter from rat synaptosomal nerve endings by using [3H]DA as radioligand
pKi: −log10 of the molar value.
Lab note: anything with pKi at or over 7 counts as 1; the rest go in 0.

CN1CCC(c2ccc(Cl)cc2)C(C[S+]([O-])CC(=O)N2CCCCC2)C1 (stereo unspecified); 0
COC(=O)C[S+]([O-])CC1CN(C)CCC1c1ccc(Cl)cc1 (stereo unspecified); 0
CC(C)NC(=O)CSCC1CN(C)CCC1c1ccc(Cl)cc1 (stereo unspecified); 1
CC(C)NC(=O)C[S+]([O-])CC1CN(C)CCC1c1ccc(Cl)cc1 (stereo unspecified); 0
